Target: human Y4 receptor (human, UniProt P50391 1-375)
Sequence (P50391 whole entry): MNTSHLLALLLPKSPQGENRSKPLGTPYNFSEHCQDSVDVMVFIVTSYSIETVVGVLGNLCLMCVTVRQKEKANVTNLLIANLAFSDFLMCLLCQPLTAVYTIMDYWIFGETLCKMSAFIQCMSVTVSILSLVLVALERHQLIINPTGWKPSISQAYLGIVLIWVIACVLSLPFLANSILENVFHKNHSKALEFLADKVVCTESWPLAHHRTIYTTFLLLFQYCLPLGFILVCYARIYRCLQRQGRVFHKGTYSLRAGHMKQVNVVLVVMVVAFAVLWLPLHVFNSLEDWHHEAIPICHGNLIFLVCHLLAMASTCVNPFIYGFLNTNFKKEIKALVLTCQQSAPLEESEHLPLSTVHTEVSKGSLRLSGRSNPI
Assay: 125I-PP displacement
For each record, write down the corresponding pIC50.
Note on pIC50: it is the negative log10 of concentration, concentration in mol/L.

Per the records, this binder ( APLEPVYPGDDATPQQMAQYAAELRRYINMLTRPRY [6457] ) has pIC50 equal to 9.89

Reported pIC50 ( APLEPVYPGDNATHEQMAQYAADLRRYINMLTRPRY [6441] ) = 9.52

According to the records, this binder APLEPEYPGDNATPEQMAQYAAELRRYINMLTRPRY [6458] displays pIC50 of 9.74

pIC50 for APLEPVYPGDNATPEQLAQYAADLRRYINMLTRPRY [6429] is 9.26

APLEPVYPGDNATPEKMAQYAADLRRYINMLTRPRY [6466] has a reported pIC50 of 8.89

# binder KPLEPVYPGDNATPEQMAQYAADLRRYINMLTRPRY (not fully specified; lauryl-lysine at position 1 (replaces Ala 1)) [compound of SEQ ID NO:11 (code 6435)] ; its pIC50 = 9.89
